- System: RSK1(Kin.Dom.2-C-terminal)
- Construct: gene RPS6KA1
- condition parameters: concentration: 1 μM, replicates: in singlicate; n = 1;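 also: KINOMEscan kinase panel screen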

- record smiles: "COc1cccc(C2=C(Nc3cccc(O)c3)C(=O)NC2=O)c1"
  unit abbreviation: "%"
  %Inh: 0
- record smiles: "Nc1ncnc2scc(-c3ccc(NC(=O)Cc4cc(F)ccc4F)cc3)c12.O=C(O)C(F)(F)F"
  unit abbreviation: "%"
  %Inh: 14
- record smiles: "CN(c1ccc(NC(=O)Nc2cccc(Cl)c2)cc1)c1ccnc(N)n1.Cl"
  unit abbreviation: "%"
  %Inh: 0
- record smiles: "N#Cc1cnc2cc(-c3cnc(CNCCN4CCOCC4)s3)ccc2c1Nc1ccc(Oc2ccccc2)cc1"
  unit abbreviation: "%"
  %Inh: 32

###

- Test system: RSK1(Kin.Dom.1-N-terminal)
- Construct: gene RPS6KA1
- condition parameters: concentration: 1 μM, replicates: in singlicate; n = 1
Cut-off 20% on %Inh, inclusive. At or above means MET; below means NOT MET.

- record smiles: "CCNc1nccc(-c2c(-c3ccc(F)cc3)ncn2C2CCN(C)CC2)n1"
  assigned label: "NOT MET"
- record smiles: "Cl.O=C(Nc1ccc(Oc2ccc3[nH]c(NC(=O)c4ccco4)nc3c2)cc1)Nc1cc(C(F)(F)F)ccc1F"
  assigned label: "NOT MET"
- record smiles: "Cc1cccc(Nc2nc(N[C@H]3CCCC[C@H]3N)ncc2C(N)=O)c1.Cl"
  assigned label: "MET"
- record smiles: "CNc1nccc(-c2ccc3c(N)n[nH]c3c2)n1"
  assigned label: "MET"
- record smiles: "CN(c1ccc2c(c1)nc(NCc1ccccc1)n2C)c1ccnc(Nc2ccc(CS(C)(=O)=O)cc2)n1.Cl"
  assigned label: "NOT MET"
- record smiles: "Cc1ccc(NC(=O)c2cccc(N3CCCCC3)c2)cc1-c1ccc(C(=O)NCC2CC2)cc1"
  assigned label: "NOT MET"
- record smiles: "COC(=O)Nc1nc2cc(Oc3ccc(NC(=O)Nc4cccc(SC)c4)cc3)ccc2[nH]1.Cl"
  assigned label: "NOT MET"
- record smiles: "CN(C)CCNS(=O)(=O)c1ccc(-c2ccnc3[nH]ccc23)cc1"
  assigned label: "MET"
- record smiles: "COc1ccc(C2=C(Nc3cccc(O)c3)C(=O)NC2=O)cc1"
  assigned label: "MET"
- record smiles: "CSc1ccc(NC2=C(c3ccc(Cl)cc3)C(=O)NC2=O)cc1"
  assigned label: "NOT MET"
- record smiles: "CN(C)c1ncnc2nc[nH]c12"
  assigned label: "NOT MET"
- record smiles: "CN1CCN(Cc2ccc(NC(=O)Nc3ccc(N(C)c4ccnc(Nc5ccc(CS(C)(=O)=O)cc5)n4)cc3)cc2)CC1.Cl"
  assigned label: "MET"

###

- Test system: TYRO3
- condition parameters: concentration: 1 μM, replicates: in singlicate; n = 1
In this section we review reported %Inh values for a set of compounds.

- record smiles: "COc1cccc(-c2nc(-c3ccccc3)[nH]c2-c2ccncc2)c1"
  unit abbreviation: "%"
  %Inh: 0
- record smiles: "Cn1cc(-c2ccc3c(c2)CCN3C(=O)Cc2cc(F)cc(F)c2F)c2c(N)ncnc21"
  unit abbreviation: "%"
  %Inh: 0
- record smiles: "COc1ccc(C)c(Nc2ccnc(Nc3ccc(-c4cnc[nH]4)cc3)n2)c1.Cl"
  unit abbreviation: "%"
  %Inh: 44
- record smiles: "Cc1ccc(O)cc1Nc1ccnc2cc(-c3ccc(CN4CCCCC4)o3)ccc12"
  unit abbreviation: "%"
  %Inh: 59
- record smiles: "COc1cccc(CC(=O)N2CCc3cc(-c4cn(C)c5ncnc(N)c45)ccc32)c1"
  unit abbreviation: "%"
  %Inh: 0
